target or test system: α5β1 integrin mediated adhesion of K562 cells (Homo sapiens, UniProt P05556+P08648)
Sequence (P08648 42-894 limits assumed): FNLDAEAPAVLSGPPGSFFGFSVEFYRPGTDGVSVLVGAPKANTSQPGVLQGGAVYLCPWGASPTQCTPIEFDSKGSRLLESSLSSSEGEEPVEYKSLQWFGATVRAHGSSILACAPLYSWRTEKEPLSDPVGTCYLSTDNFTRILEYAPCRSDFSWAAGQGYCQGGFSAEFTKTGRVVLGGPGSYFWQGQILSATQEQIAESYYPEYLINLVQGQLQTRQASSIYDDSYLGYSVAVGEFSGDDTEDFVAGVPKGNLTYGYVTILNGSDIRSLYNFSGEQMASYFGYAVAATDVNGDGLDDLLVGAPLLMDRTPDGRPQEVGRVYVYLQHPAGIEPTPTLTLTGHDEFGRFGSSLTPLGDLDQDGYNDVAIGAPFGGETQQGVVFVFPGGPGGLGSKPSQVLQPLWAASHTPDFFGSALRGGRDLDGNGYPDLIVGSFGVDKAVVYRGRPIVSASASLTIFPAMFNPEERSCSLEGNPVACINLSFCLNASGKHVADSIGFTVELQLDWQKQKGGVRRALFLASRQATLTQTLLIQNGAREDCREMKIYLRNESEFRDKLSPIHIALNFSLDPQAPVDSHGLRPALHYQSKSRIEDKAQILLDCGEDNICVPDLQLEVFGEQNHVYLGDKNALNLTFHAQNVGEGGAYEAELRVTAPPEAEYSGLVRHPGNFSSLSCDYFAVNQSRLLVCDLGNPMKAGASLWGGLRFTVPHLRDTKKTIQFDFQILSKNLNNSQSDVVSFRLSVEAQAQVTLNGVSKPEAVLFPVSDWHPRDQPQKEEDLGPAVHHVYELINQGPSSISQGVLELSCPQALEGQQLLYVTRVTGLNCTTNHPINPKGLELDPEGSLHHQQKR
Sequence (P08648 895-1049 partner limits assumed): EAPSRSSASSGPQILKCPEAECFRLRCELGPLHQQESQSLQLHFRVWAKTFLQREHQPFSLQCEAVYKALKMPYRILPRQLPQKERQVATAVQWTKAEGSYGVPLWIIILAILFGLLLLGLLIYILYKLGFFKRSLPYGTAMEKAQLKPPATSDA
Sequence (P05556 21-798): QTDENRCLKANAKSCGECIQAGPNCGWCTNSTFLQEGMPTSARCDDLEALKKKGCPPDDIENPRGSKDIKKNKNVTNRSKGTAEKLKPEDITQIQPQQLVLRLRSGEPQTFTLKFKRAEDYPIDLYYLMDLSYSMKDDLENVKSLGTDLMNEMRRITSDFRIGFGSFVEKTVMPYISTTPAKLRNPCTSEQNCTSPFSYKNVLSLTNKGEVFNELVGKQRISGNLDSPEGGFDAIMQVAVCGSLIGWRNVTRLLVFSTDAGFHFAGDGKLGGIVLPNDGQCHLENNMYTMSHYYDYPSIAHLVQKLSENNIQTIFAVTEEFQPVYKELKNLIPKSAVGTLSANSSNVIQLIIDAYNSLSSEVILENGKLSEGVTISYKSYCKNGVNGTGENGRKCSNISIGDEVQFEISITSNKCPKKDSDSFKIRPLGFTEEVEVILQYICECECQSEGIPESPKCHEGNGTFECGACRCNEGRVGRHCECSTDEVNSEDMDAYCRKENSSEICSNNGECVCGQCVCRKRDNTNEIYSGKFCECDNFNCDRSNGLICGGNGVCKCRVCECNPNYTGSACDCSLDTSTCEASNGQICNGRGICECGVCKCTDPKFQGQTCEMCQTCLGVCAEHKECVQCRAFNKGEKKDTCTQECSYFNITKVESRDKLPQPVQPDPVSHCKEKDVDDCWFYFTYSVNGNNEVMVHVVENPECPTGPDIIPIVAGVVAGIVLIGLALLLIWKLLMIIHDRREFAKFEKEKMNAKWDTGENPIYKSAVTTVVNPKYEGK
procedure details: In vitro cell adhesion assay (b): inhibition of adhesion of K562 cells to fibronectin fragment Fn9-10, crystal violet stain
setup conditions: K562 cells on Fn9-10; geometric mean of the measured IC50 values; n = number of tests
measurement type: IC50 (µM)
Numbers only, in µM.

Q: I have this compound here, CNc1cccc(CCCc2ccc(C[C@H](NC(=O)c3c(Cl)cccc3Cl)C(=O)O)s2)n1 , and I need its recorded IC50.
Result: 0.031

New cases:
Q: I have this compound here, O=C(N[C@@H](Cc1ccc(OCCc2ccc3c(n2)NCCC3)cc1)C(=O)O)c1c(Cl)cccc1Cl , and I need its recorded IC50.
Result: 0.002
